For each record, write down the corresponding MIC.
system: Pseudomonas aeruginosa; assay: Antimicrobial activity against carbapenem-resistant Pseudomonas aeruginosa isolate; type: functional

# example entries with known answers
CCN1CCN(C(=O)N[C@@H](C(=O)N[C@@H]2C(=O)N3[C@@H]2SC(C)(C)[C@@H]3C(=O)O)c2ccccc2)C(=O)C1=O
> 64 µg/mL
C[C@H]1[C@H](NC(=O)/C(=N\OC(C)(C)C(=O)O)c2csc(N)n2)C(=O)N1S(=O)(=O)O
> 8 µg/mL
CC1(C)S[C@@H]2[C@H](NC(=O)[C@H](C(=O)O)c3ccsc3)C(=O)N2[C@H]1C(=O)O
> 64 µg/mL
NC[C@H]1O[C@H](O[C@H]2[C@H](O)[C@@H](O[C@H]3O[C@H](CO)[C@@H](O)[C@H](N)[C@H]3O)[C@H](N)C[C@@H]2N)[C@H](N)C[C@@H]1O
> 4 µg/mL

For each entry beneath this line, provide reported MIC.
1. CC(C)(O/N=C(\C(=O)N[C@@H]1C(=O)N2C(C(=O)[O-])=C(C[n+]3ccccc3)CS[C@H]12)c1csc(N)n1)C(=O)O
2. O=C(O)c1cn(C2CC2)c2cc(N3CCNCC3)c(F)cc2c1=O

["> 8 µg/mL", "≥ 2 µg/mL"]
